# Test system: human pancreatic carcinoma (PANC-1)
# assay remarks: MTS metabolic activity assay, PANC-1 cells
# Format: cell-based
# measurement context: Homo sapiens; PANC-1, 300 µM, 72 h; read-out: Cell metabolic activity (MTS), % of untreated control
Each record here notes measured viability at 300 µM.
Expressed in %, but write only the number.

In [3]: df
Out[3]:
                                   molecule                          system_name    quantity_measured  unit_abbreviation  measurement
0  O=C1N=C(NC2CCCC2)SC1c1ccccc1 (stereo not drawn)  human pancreatic carcinoma (PANC-1)  viability at 300 µM                  %          141
1  CC1SC(NC2CCCC2)=NC1=O (stereo not drawn)  human pancreatic carcinoma (PANC-1)  viability at 300 µM                  %          106
2                  CC1(C)SC(NC2CCCC2)=NC1=O  human pancreatic carcinoma (PANC-1)  viability at 300 µM                  %          122
3  CC(C)C1SC(NC2CCCC2)=NC1=O (stereo not drawn)  human pancreatic carcinoma (PANC-1)  viability at 300 µM                  %          119
4               O=C1N=C(NC2CCCC2)SC12CCCCC2  human pancreatic carcinoma (PANC-1)  viability at 300 µM                  %          127

Next:
In: Need viability at 300 µM, item O=C1N=C(NC2CCCC2)SC1c1ccc(Br)cc1 (stereo not drawn)
Out: 57.9

====

# System: human colon carcinoma (Caco-2)
# assay remarks: MTS metabolic activity assay, Caco-2 cells
# Assay type: cell-based
# measurement context: Homo sapiens; Caco-2, 500 µM, 72 h; read-out: Cell metabolic activity (MTS), % of untreated control
Reported viability at 500 µM is given for each of the following compounds.
Enter your answer as a number in %; do not include the unit.

>>> print(df.to_string())
                                   compound                     system_name    quantity_measured  measurement
0  CCCC1SC(NC2CCCC2)=NC1=O (stereo not drawn) [Compound 3c]  human colon carcinoma (Caco-2)  viability at 500 µM         68.5
1    CC1(C)SC(NC2CCCC2)=NC1=O [Compound 3e]  human colon carcinoma (Caco-2)  viability at 500 µM         64.1

Field: next compound
In: # returns recorded viability at 500 µM (system: human colon carcinoma (Caco-2)) for O=C1N=C(NC2CCCC2)SC1c1ccccc1 (stereo not drawn) [Compound 3f]
Out: 75.2

====

Below, each entry is listed with its recorded viability at 20 µM.
# Test system: skin melanoma (SK-MEL-30)
# assay remarks: MTS metabolic activity assay, SK-MEL-30 cells
# Assay type: cell-based
# measurement context: Homo sapiens; SK-MEL-30, 20 µM, 72 h; read-out: Cell metabolic activity (MTS), % of untreated control
// note: answer is a bare numeric in %

// worked examples, viability at 20 µM included
                                   molecule  measurement
0  O=C1N=C(NC2CCCC2)SC1c1ccc(Br)cc1 (stereo not drawn)         97.5
1  CCC1SC(NC2CCCC2)=NC1=O (stereo not drawn)           99
2  CC1SC(NC2CCCC2)=NC1=O (stereo not drawn)          102

In: Fill in: viability at 20 µM of O=C1N=C(NC2CCCC2)SC1c1ccccc1 (stereo not drawn) is ___
Out: 98.2

In: # repeat for O=C1N=C(NC2CCCC2)SC12CCCCC2
Out: 100

In: Next: CC(C)C1SC(NC2CCCC2)=NC1=O (stereo not drawn)
Out: 97.1
